# EXPERIMENTAL SYSTEM: Factor XIa (Homo sapiens)
# METHOD NOTES: Factor XIa inhibition assay utilizing a fluorophore-quencher pair peptide substrate (FLINT)
# Type: biochemical
# EXPERIMENTAL PARAMETERS: kinetic reads at 5 min intervals over 30 min; 30 min preincubation; 5Fam-KLTRAETV-K5Tamra substrate; read-out: FXIa (KIN) IC50
Readings of IC50 for the listed compounds
Give just the number in nM; leave the unit off.

NC(=O)c1ccc(-c2cnn(C3CCc4cc(-c5c(-n6cc(C(F)(F)F)nn6)ccc(Cl)c5F)c[n+]([O-])c43)c2)cc1F (single isomer, unassigned) [ID No. 28]
37
Nc1ccc(-c2cnn(C3CCc4cc(-c5c(-n6cnnn6)ccc(Cl)c5F)c[n+]([O-])c43)c2)c(Cl)n1 (single isomer, unassigned) [ID No. 22]
3

Continue with the next compound.
I would be grateful if you could share the reported IC50 for CC(=O)Nc1ccc(-c2cnn(C3CCCc4cc(-c5c(-n6cnnn6)ccc(Cl)c5F)c[n+]([O-])c43)c2)c(F)n1 (racemic) . 765

* * *

This listing pairs compounds with measured log10(IC50).
# EXPERIMENTAL SYSTEM: UniProt:P03951
# METHOD NOTES: Factor XIa inhibition assay utilizing a fluorophore-quencher pair peptide substrate (FLINT)
# Format: biochemical
# EXPERIMENTAL PARAMETERS: kinetic reads at 5 min intervals over 30 min; 30 min preincubation; 5Fam-KLTRAETV-K5Tamra substrate; read-out: FXIa (KIN) IC50
Note: values are log10 of IC50 expressed in nM.

Record excerpt, results attached:
Nc1nc(F)c(-c2cnn(C3CCCc4cc(-c5c(-n6cnnn6)ccc(Cl)c5F)c[n+]([O-])c43)c2)cc1Cl (racemic)
3.10
Nc1ccc(-c2cnn(C3CCCc4cc(-c5c(-n6cnnn6)ccc(Cl)c5F)c[n+]([O-])c43)c2)c(F)n1 (single isomer, unassigned) [ID No. 31]
1.60

Endpoint output: log10(IC50) of Cn1nncc1-c1cnn([C@@H]2CCc3cc(-c4c(-n5cnnn5)ccc(Cl)c4F)c[n+]([O-])c32)c1 . Value? 1.62

Entry O=C(Nc1ccc(-c2cnn(C3CCc4cc(-c5c(-n6cnnn6)ccc(Cl)c5F)c[n+]([O-])c43)c2)cc1)C1CC1 (racemic) : reported log10(IC50) = ? 1.40

Given the entry O=C(NC1CC1)c1ccc(-c2cnn(C3CCc4cc(-c5c(-n6cnnn6)ccc(Cl)c5F)c[n+]([O-])c43)c2)cc1 (racemic) , report its measured log10(IC50). 2.45

# log10(IC50) lookup, item [O-][n+]1cc(-c2c(-n3cnnn3)ccc(Cl)c2F)cc2c1C(n1cc(-c3ccnc(C4CC4)c3)cn1)CC2 (racemic) 1.60

* * *

# EXPERIMENTAL SYSTEM: human plasma kallikrein (Homo sapiens, UniProt P03952)
# Sequence (P03952 391-638 limits assumed): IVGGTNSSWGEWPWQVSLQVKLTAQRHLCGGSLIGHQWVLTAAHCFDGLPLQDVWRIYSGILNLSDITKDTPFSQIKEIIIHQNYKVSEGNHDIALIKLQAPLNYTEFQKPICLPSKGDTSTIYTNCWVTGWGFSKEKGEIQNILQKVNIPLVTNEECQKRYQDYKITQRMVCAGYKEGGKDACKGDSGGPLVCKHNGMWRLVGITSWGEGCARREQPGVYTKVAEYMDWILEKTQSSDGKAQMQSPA
# Sequence (P03952 20-390 partner limits assumed): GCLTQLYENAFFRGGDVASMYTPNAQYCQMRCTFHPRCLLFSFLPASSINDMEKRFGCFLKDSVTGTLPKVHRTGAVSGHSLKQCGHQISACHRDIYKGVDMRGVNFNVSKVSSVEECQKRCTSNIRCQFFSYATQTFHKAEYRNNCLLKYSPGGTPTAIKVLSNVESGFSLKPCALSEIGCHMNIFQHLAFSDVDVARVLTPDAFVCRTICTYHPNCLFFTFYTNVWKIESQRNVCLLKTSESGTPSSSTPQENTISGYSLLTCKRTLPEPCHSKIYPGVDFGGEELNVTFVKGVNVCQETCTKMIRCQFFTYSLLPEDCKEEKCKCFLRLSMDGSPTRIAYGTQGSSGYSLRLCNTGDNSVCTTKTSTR
# METHOD NOTES: Kallikrein inhibition assay utilizing a quenched AMC peptide substrate (FLINT)
# EXPERIMENTAL PARAMETERS: kinetic reads at 5 min intervals over 30 min; 30 min preincubation; Z-Gly-Pro-Arg-AMC substrate; read-out: Kallikrein (KIN) IC50
IC50 values for the compounds below.
State just the number; it will be interpreted in µM.

Recorded results for 4 compounds are shown here.
Nc1nc(F)c(-c2cnn(C3CCCc4cc(-c5c(-n6cnnn6)ccc(Cl)c5F)c[n+]([O-])c43)c2)cc1Cl (racemic)
2.88
O=C(NC1CC1)c1ccc(-c2cnn(C3CCc4cc(-c5c(-n6cnnn6)ccc(Cl)c5F)c[n+]([O-])c43)c2)cc1 (racemic)
1.09
Nc1ccc(-c2cnn(C3CCc4cc(-c5c(-n6cnnn6)ccc(Cl)c5F)c[n+]([O-])c43)c2)c(Cl)n1 (racemic) [ID No. 17]
0.432
Cn1ncc(-c2cnn(C3CCc4cc(-c5c(-n6cnnn6)ccc(Cl)c5F)c[n+]([O-])c43)c2)cc1=O (racemic)
6.36

Now take the following compound into account.
Fill blank: measured IC50 of the compound CC(=O)Nc1ccc(-c2cnn(C3CCCc4cc(-c5c(-n6cnnn6)ccc(Cl)c5F)c[n+]([O-])c43)c2)c(F)n1 (racemic) is ____. 8.48

* * *

# EXPERIMENTAL SYSTEM: Factor XIa (Homo sapiens, UniProt P03951)
# Sequence (P03951 388-625 limits assumed): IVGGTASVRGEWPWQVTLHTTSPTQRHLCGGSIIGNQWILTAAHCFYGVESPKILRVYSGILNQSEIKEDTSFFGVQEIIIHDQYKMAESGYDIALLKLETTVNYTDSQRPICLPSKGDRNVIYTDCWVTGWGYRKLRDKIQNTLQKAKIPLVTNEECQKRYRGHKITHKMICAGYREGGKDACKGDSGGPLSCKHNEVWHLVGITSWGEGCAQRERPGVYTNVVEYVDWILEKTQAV
# Sequence (P03951 19-387 partner limits assumed): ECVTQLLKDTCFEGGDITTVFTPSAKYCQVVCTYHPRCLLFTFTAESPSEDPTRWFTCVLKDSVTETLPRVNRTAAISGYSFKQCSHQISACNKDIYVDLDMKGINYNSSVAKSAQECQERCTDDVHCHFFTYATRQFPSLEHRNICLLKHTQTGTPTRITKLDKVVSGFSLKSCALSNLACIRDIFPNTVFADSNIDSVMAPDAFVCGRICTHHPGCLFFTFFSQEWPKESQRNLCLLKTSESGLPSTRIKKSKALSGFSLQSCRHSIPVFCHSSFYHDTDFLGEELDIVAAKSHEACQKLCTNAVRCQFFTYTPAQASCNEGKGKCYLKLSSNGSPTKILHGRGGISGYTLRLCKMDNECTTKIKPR
# METHOD NOTES: Factor XIa inhibition assay utilizing a fluorophore-quencher pair peptide substrate (FLINT)
# Type: biochemical
# EXPERIMENTAL PARAMETERS: end point read at 30 min; 30 min preincubation; 5Fam-KLTRAETV-K5Tamra substrate; read-out: FXIa (EP) IC50
pIC50: −log10 of the molar value.
The label depends only on pIC50: true if it is at least 6, false if it is smaller.

Would you please look over these solved cases?
Nc1ccc(-c2cnn(C3CCc4cc(-c5c(-n6cnnn6)ccc(Cl)c5F)c[n+]([O-])c43)c2)c(F)n1 (racemic) [ID No. 11]
true
O=C(O)c1ccc2nn(C3CCc4cc(-c5cc(Cl)ccc5-n5cnnn5)c[n+]([O-])c43)cc2c1 (centres unmarked) [ID No. 1]
false
COC(=O)Nc1ccc(-c2cnn(C3CCc4cc(-c5cc(Cl)ccc5-n5cnnn5)c[n+]([O-])c43)c2)cc1 (racemic) [ID No. 7]
true
Nc1ccc(-c2cnn(C3CCc4cc(-c5cc(Cl)ccc5-n5cnnn5)c[n+]([O-])c43)c2)cc1 (racemic) [ID No. 12]
true
COC(=O)Nc1ccc(-c2cnn(C3CCc4cc(-c5c(-n6cnnn6)ccc(Cl)c5F)c[n+]([O-])c43)c2)cc1 (single isomer, unassigned) [ID No. 8]
false
O=C(O)c1ccc(-c2ccn(C3CCc4cc(-c5cc(Cl)ccc5-n5cnnn5)c[n+]([O-])c43)n2)cc1 (racemic) [ID No. 3]
true

Next up:
Would you say COC(=O)Nc1ccc(-c2cn(C3CCc4cc(-c5c(-n6cnnn6)ccc(Cl)c5F)c[n+]([O-])c43)nc2C)cc1 (single isomer, unassigned) [ID No. 14] shows pIC50 at minimum 6? true

* * *

# EXPERIMENTAL SYSTEM: human plasma kallikrein (Homo sapiens, UniProt P03952)
# METHOD NOTES: Kallikrein inhibition assay utilizing a quenched AMC peptide substrate (FLINT)
# EXPERIMENTAL PARAMETERS: kinetic reads at 5 min intervals over 30 min; 30 min preincubation; Z-Gly-Pro-Arg-AMC substrate; read-out: Kallikrein (KIN) IC50
Attribute: pIC50
The scale used: pIC50 is minus the common logarithm of the concentration in molar units.

Dear colleague, I am looking for the recorded pIC50 of the following compound: COC(=O)Nc1ccc(-c2cn(C3CCc4cc(-c5c(-n6cnnn6)ccc(Cl)c5F)c[n+]([O-])c43)cn2)cc1 (stereo not drawn) 6.34

Quick one: pIC50 for O=C(Nc1ccc(-c2cnn(C3CCc4cc(-c5c(-n6cnnn6)ccc(Cl)c5F)c[n+]([O-])c43)c2)cc1)C1CC1 (racemic) ? 6.50

Need pIC50 of Cn1nncc1-c1cnn([C@@H]2CCc3cc(-c4c(-n5cnnn5)ccc(Cl)c4F)c[n+]([O-])c32)c1 , thanks. 5.39

What pIC50 value was documented for this compound, [O-][n+]1cc(-c2c(-n3cnnn3)ccc(Cl)c2F)cc2c1C(n1cc(-c3ccnc(C4CC4)c3)cn1)CC2 (racemic) ? 7.15

* * *

pIC50 values for the molecules below.
# EXPERIMENTAL SYSTEM: Factor XIa (Homo sapiens)
# METHOD NOTES: Factor XIa inhibition assay utilizing a fluorophore-quencher pair peptide substrate (FLINT)
# Assay type: biochemical
# EXPERIMENTAL PARAMETERS: kinetic reads at 5 min intervals over 30 min; 30 min preincubation; 5Fam-KLTRAETV-K5Tamra substrate; read-out: FXIa (KIN) IC50
Bear in mind: pIC50 is minus log10 of a mol/L concentration; give just that figure.

Nc1ccc(-c2cnn(C3CCc4cc(-c5c(-n6cnnn6)ccc(Cl)c5F)c[n+]([O-])c43)c2)c(Cl)n1 (single isomer, unassigned) [ID No. 21]
5.62

Could you share which pIC50 value was measured for Cn1ncc(-c2cnn(C3CCc4cc(-c5c(-n6cnnn6)ccc(Cl)c5F)c[n+]([O-])c43)c2)cc1=O (racemic) ? 5.93

* * *

Listed compounds paired with reported pIC50
# EXPERIMENTAL SYSTEM: Factor XIa (Homo sapiens, UniProt P03951)
# METHOD NOTES: Factor XIa inhibition assay utilizing a fluorophore-quencher pair peptide substrate (FLINT)
# Assay type: biochemical
# EXPERIMENTAL PARAMETERS: kinetic reads at 5 min intervals over 30 min; 30 min preincubation; 5Fam-KLTRAETV-K5Tamra substrate; read-out: FXIa (KIN) IC50
// pIC50: -log10(molar conc.)

Cc1cc(-c2cnn(C3CCc4cc(-c5c(-n6cnnn6)ccc(Cl)c5F)c[n+]([O-])c43)c2)ccn1 (racemic)
7.49
COC(=O)Nc1ccc(-c2cn(C3CCc4cc(-c5c(-n6cnnn6)ccc(Cl)c5F)c[n+]([O-])c43)cn2)cc1 (stereo not drawn)
7.62
Nc1ccc(-c2cnn(C3CCc4cc(-c5c(-n6cnnn6)ccc(Cl)c5F)c[n+]([O-])c43)c2)c(Cl)n1 (racemic) [ID No. 17]
8.30

Okay, now this compound:
What value of pIC50 has been reported for the following compound? Cn1c(-c2cnn(C3CCc4cc(-c5c(-n6cnnn6)ccc(Cl)c5F)c[n+]([O-])c43)c2)cccc1=O (racemic) 5.51
